Provenance of the data: patent US20190112365A1

- Experimental system: T1, Human Tau 2N4R, wild type, recombinant full length (human, UniProt P10636 2-758)
- T1 construct: Full length 2N4R isoform; monomer in SPR and ELISA; heparin-induced aggregates or seeds in the functional assays; also called Tau441; Tau-441
- T1 sequence (P10636 other isoform, or with tags, fused parts or gaps limits assumed): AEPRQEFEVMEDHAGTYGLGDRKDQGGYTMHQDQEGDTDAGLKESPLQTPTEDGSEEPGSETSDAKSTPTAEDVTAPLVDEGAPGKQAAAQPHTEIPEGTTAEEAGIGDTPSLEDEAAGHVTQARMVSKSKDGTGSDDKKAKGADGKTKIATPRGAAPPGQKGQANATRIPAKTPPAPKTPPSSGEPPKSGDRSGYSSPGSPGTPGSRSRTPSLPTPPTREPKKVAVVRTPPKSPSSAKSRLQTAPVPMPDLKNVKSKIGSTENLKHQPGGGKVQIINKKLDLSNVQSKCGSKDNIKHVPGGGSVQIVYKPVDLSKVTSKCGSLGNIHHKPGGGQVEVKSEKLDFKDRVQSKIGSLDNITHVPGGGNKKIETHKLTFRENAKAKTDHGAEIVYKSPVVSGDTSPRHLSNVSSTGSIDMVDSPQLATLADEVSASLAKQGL
- Assay protocol: SPR BIAcore, mAb captured by anti-human IgG, Tau flowed, 1:1 Langmuir
Recorded metric: koff (s⁻¹)
All answers are understood in s⁻¹, so give the number only.

7G6-HCzu1-LCzu1 (antibody, human IgG1, kappa, V domains shown, humanized, human IgG1 kappa) VH: QVQLVQSGAEVKKPGASVKVSCKASGYTFTTYWITWVRQAPGQGLEWMGDIYPGSSICNYNEKFKSRVTMTRDTSTSTVYMELSSLRSEDTAVYYCAREDGYDAWFAYWGQGTLVTVSS VL: DVVMTQSPLSLPVTLGQPASISCRSSQSILHSNGNTYLEWFQQRPGQSPRRLIYKVSNRFSGVPDRFSGSGSGTDFTLKISRVEAEDVGVYYCFQGSHVPFTFGQGTKLEIKR = 0.000519

q: // lookup koff for 7G6-HCzu2-LCzu1 (antibody, human IgG1, kappa, V domains shown, humanized, human IgG1 kappa) VH: QVQLVQSGAEVKKPGASVKVSCKASGYTFTTYWITWVRQAPGQGLEWMGDIYPGSSICNYNEKFKSRVTMTVDTSTSTVYMELSSLRSEDTAVYYCAREDGYDAWFAYWGQGTLVTVSS VL: DVVMTQSPLSLPVTLGQPASISCRSSQSILHSNGNTYLEWFQQRPGQSPRRLIYKVSNRFSGVPDRFSGSGSGTDFTLKISRVEAEDVGVYYCFQGSHVPFTFGQGTKLEIKR
a: 0.00064

q: Then this binder: 7G6-HCzu2-LCzu2 (antibody, human IgG1, kappa, V domains shown, humanized, human IgG1 kappa) VH: QVQLVQSGAEVKKPGASVKVSCKASGYTFTTYWITWVRQAPGQGLEWMGDIYPGSSICNYNEKFKSRVTMTVDTSTSTVYMELSSLRSEDTAVYYCAREDGYDAWFAYWGQGTLVTVSS VL: DVVMTQSPLSLPVTLGQPASISCRSSQSILHSNGNTYLEWYQQRPGQSPRLLICKVSNRFSGVPDRFSGSGSGTDFTLKISRVEAEDVGVYYCFQGSHVPFTFGQGTKLEIKR
a: 0.000214
